- ASSAY_SYSTEM: Serine/threonine-protein kinase Nek6 (Homo sapiens) (UniProt Q9HC98);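 further: values are mean inhibition of NEK6 from the GSK PKIS screen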
- Sequence (Q9HC98 whole entry): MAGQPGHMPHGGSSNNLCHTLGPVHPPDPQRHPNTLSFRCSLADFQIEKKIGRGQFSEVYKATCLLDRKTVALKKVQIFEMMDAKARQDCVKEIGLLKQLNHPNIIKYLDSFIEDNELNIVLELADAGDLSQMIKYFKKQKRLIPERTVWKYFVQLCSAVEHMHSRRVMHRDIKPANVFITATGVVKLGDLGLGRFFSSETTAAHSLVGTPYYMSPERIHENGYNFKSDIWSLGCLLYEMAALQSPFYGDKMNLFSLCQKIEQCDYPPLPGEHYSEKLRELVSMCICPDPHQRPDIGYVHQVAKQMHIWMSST
- PARTICULARS: at 1 µM
Measured inhibition, listed per entry.
Your answer is read as %, so omit the unit and give the number.

INSERT INTO results (molecular_string, assay_system, reported_value) VALUES
  ('CN1CCC(n2cnc(-c3ccc(F)cc3)c2-c2ccnc(Nc3ccccc3)n2)CC1', 'Serine/threonine-protein kinase Nek6 (Homo sapiens) (UniProt Q9HC98)', 3.58),
  ('c1ccc(COc2ccc(Nc3ncnc4ccc(-c5ccco5)cc34)cc2)cc1', 'Serine/threonine-protein kinase Nek6 (Homo sapiens) (UniProt Q9HC98)', -0.36);

Then this compound:
# input // returns reported inhibition for input `COc1cccc(-c2c[nH]c3c(N/N=C/c4ccncc4)ncnc23)c1`
# output -1.66

---

- ASSAY_SYSTEM: Protein-tyrosine kinase 2-beta (Homo sapiens) (UniProt Q14289);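 further: values are the mean percent inhibition of PYK2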
- Sequence (Q14289 whole entry, looked up): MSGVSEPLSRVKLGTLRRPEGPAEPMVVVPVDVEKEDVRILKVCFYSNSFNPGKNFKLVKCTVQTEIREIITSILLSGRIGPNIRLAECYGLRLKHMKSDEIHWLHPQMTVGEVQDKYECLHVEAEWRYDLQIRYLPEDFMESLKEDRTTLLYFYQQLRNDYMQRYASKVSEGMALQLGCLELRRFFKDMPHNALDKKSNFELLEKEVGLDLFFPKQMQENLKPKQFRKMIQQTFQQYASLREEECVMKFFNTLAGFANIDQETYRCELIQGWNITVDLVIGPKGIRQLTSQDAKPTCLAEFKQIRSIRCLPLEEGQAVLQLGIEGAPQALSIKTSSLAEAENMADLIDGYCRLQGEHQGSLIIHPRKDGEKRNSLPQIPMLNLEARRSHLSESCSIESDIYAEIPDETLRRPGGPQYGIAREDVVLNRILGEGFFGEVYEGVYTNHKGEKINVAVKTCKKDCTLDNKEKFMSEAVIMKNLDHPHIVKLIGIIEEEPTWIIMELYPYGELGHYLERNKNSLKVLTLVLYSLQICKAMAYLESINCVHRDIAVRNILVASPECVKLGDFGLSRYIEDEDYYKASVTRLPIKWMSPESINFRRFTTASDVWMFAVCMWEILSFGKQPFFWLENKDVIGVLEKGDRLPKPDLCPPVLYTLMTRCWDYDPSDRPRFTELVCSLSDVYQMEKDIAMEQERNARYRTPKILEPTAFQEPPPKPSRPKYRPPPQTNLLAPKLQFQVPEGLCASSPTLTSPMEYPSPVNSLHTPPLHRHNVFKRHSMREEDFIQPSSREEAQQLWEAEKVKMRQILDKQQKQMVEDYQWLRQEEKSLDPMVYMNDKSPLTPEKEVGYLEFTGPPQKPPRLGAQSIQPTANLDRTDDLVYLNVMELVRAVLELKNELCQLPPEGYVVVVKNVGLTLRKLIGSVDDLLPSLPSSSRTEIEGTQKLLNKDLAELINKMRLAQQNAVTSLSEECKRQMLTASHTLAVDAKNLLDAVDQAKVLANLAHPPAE
- PARTICULARS: at 1 µM
Recorded inhibition for the following compounds

Solved entries (count: 5):
INSERT INTO results (molecular_string, assay_system, reported_value) VALUES
  ('O=C(Nc1n[nH]c2cc(-c3ccc(F)cc3)ccc12)C1CC1', 'Protein-tyrosine kinase 2-beta (Homo sapiens) (UniProt Q14289)', '9.39%'),
  ('COc1ccc(CNC(=O)c2ccc(-c3cc(-c4nnc(C)o4)ccc3C)cc2)cc1', 'Protein-tyrosine kinase 2-beta (Homo sapiens) (UniProt Q14289)', '5.83%'),
  ('COc1ccc2[nH]c3c4[nH]c5ccc(OC)cc5c4c4c(c3c2c1)C(=O)NC4=O', 'Protein-tyrosine kinase 2-beta (Homo sapiens) (UniProt Q14289)', '80.6%'),
  ('CCCN1CCC(c2ccc(Nc3nc(Nc4cc(F)ccc4C(N)=O)c4cc[nH]c4n3)c(OC)c2)CC1', 'Protein-tyrosine kinase 2-beta (Homo sapiens) (UniProt Q14289)', '96.8%'),
  ('O=C(O[C@H]1CN[C@H](C#Cc2cc3ncnc(Nc4ccc(Cc5ccccc5)cc4)c3s2)C1)N1CCOCC1', 'Protein-tyrosine kinase 2-beta (Homo sapiens) (UniProt Q14289)', '-6.94%');

# input # inhibition lookup, item `N#Cc1c(NC(=O)c2ccc(F)cc2)sc2c1CCCC2`
# output 1.23%

# input Same read-out for `CNC(=O)c1cc(-c2ccc(F)cc2)cc(-c2ccc(S(=O)(=O)N3CCCC3)cc2)c1N` ?
# output 7.64%

# input What about this compound? `COc1ccc(-c2cc(-c3c[nH]nc3-c3ccccn3)ccn2)cc1`
# output 13.9%

---

Recorded inhibition values for a group of compounds are listed next.
- ASSAY_SYSTEM: Ribosomal protein S6 kinase beta-1 (Homo sapiens) (UniProt P23443);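 further: values are mean inhibition of p70S6K1, measured as part of the GSK PKIS panel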
- Sequence (P23443 whole entry, looked up): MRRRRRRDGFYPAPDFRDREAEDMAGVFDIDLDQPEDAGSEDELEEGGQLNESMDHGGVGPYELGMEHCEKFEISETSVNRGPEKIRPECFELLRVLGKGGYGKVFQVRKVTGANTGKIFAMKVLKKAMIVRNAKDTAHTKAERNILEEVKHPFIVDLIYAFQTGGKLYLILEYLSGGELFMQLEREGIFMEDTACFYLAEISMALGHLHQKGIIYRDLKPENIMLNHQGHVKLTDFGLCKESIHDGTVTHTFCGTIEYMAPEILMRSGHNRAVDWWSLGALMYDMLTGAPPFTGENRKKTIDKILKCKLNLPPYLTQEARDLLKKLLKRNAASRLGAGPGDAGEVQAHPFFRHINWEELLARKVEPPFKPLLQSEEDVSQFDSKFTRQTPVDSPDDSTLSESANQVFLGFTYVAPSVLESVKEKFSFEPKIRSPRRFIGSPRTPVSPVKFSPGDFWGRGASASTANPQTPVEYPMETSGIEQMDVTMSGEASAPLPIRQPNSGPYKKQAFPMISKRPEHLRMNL
- PARTICULARS: at 1 µM
Report the figure in % without appending any unit label.

Take a look at these entries with their results.
INSERT INTO assay_data (compound, readout_label, reported_value) VALUES
  ('CC1=C(C(=O)Nc2cc(Cl)c3[nH]ncc3c2)C(c2ccc(C(F)(F)F)cc2)CC(=O)N1 (centres undefined)', 'inhibition', 41.7),
  ('Cc1ccc2c(-c3ccnc(Nc4ccccc4)n3)c(-c3ccc(F)cc3)nn2n1', 'inhibition', 3.16),
  ('CC(C)COC(=O)c1ccc2c(c1)/C(=C/Nc1ccc(S(N)(=O)=O)cc1)C(=O)N2', 'inhibition', 18.1),
  ('NS(=O)(=O)c1ccc(N/N=C2\C(=O)Nc3ccc4ncccc4c32)cc1', 'inhibition', 12.1),
  ('NS(=O)(=O)c1ccc(Nc2ncc(-c3ccccc3)o2)cc1', 'inhibition', 3.51),
  ('CN(C)CCOc1ccc(-c2nc(-c3ccncc3)c(-c3ccc4c(c3)CC/C4=N\O)[nH]2)cc1', 'inhibition', 1.71),
  ('COc1ccc(-c2cc3c(N)ncnc3o2)cc1', 'inhibition', -0.54),
  ('O=C(Nc1n[nH]c2cc(-c3ccc(F)cc3)ccc12)C1CC1', 'inhibition', 2.94),
  ('N#Cc1c(NC(=O)CN2CCOCC2)sc2c1CCCC2', 'inhibition', 1.13),
  ('COc1ccc(-c2cc(-c3c[nH]nc3-c3ccccn3)ccn2)cc1', 'inhibition', 3.73);

# input inhibition for `COc1cc2c(cc1Nc1nc(Nc3ccsc3C(N)=O)c3cc[nH]c3n1)N(C(=O)CN(C)C)CCC2(C)C` ?
# output 4.93

# input Next up: `COc1cc(N2CCN(C(C)C)CC2)ccc1Nc1nc(Nc2ccc(F)cc2C(N)=O)c2cc[nH]c2n1`
# output 5.41

# input What do we get for `COC(=O)Nc1nc2ccc(Oc3ccc(NC(=O)Nc4cccc(Cl)c4)cc3)cc2[nH]1` ?
# output 0.82

# input And the next one, `Fc1ccc(-c2nn3ncccc3c2-c2ccnc(Nc3ccc4c(c3)OCCO4)n2)cc1` ?
# output 2.69

---

We begin with a simple list: items and their reported inhibition.
- ASSAY_SYSTEM: Casein kinase I isoform gamma-2 (Homo sapiens);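 further: values are mean inhibition figures reported as part of the GSK PKIS dataset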
- PARTICULARS: at 0.1 µM
Entry rule: numbers only, all in %.

INSERT INTO measurements (molecular_string, readout_label, reported_value) VALUES
  ('Cc1cccc2c1NC(=O)/C2=N\Nc1ccc(S(N)(=O)=O)cc1', 'inhibition', 1.59),
  ('CCc1nn2ncccc2c1-c1ccnc(NC2CC2)n1', 'inhibition', 1.32),
  ('COC(=O)c1sc(-n2cnc3cc(OC)c(OC)cc32)cc1OCc1ccccc1C(F)(F)F', 'inhibition', 2.8),
  ('COc1ccc(-c2cc3c(N)ncnc3o2)cc1', 'inhibition', -0.59),
  ('CN1CCC(n2cnc(-c3ccc(F)cc3)c2-c2ccnc(N)n2)CC1', 'inhibition', 1.68);

// moving on: another record for inhibition
# input Please report the recorded inhibition for `CN1CCC(n2cnc(-c3ccc(F)cc3)c2-c2ccnc(Nc3ccccc3)n2)CC1` .
# output 4.57

---

- ASSAY_SYSTEM: 5'-AMP-activated protein kinase catalytic subunit alpha-1 (Homo sapiens);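 further: enzyme tested as the AMPK alpha1 beta1 gamma1 complex, values reported as mean percent inhibition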
- PARTICULARS: at 0.1 µM
- Description: GSK_PKIS: AMPKA1 (A1B1G1) mean inhibition at 0.1 uM [Nanosyn]
READOUT_LABEL: inhibition (%)
Write the answer as a number in %, unit excluded.

For orientation, consider the following solved cases.
INSERT INTO assay_data (molecular_string, assay_system, readout_label, reported_value) VALUES
  ('CNC(=O)c1cccc(C#Cc2cncnc2Nc2ccc(OCc3cccc(F)c3)c(Cl)c2)c1', '5''-AMP-activated protein kinase catalytic subunit alpha-1 (Homo sapiens)', 'inhibition', 0.65),
  ('CN1CCC(n2cnc(-c3ccc(F)cc3)c2-c2ccnc(Nc3ccccc3)n2)CC1', '5''-AMP-activated protein kinase catalytic subunit alpha-1 (Homo sapiens)', 'inhibition', 2.05),
  ('CC(C)(CO)CNC(=O)c1ccc2c(c1)/C(=N/Nc1ccc(S(N)(=O)=O)cc1)C(=O)N2', '5''-AMP-activated protein kinase catalytic subunit alpha-1 (Homo sapiens)', 'inhibition', 26);

# input Find the recorded inhibition belonging to `COc1ccc(CNC(=O)c2ccc(-c3cc(-c4nnc(C)o4)ccc3C)cc2)cc1` and report it.
# output 0.41

# input Then `COc1ccc(-c2cc3c(N)ncnc3o2)cc1` ?
# output 0.03

# input What do you have for `CC(=O)NCc1cccc(C#Cc2cncnc2Nc2ccc(OCc3cccc(F)c3)c(Cl)c2)c1` ?
# output 1.28

# input Moving on to the next compound: `CNC(=O)c1cncc(/C=C/c2ccccc2Cl)c1`
# output 1.03

---

- ASSAY_SYSTEM: Serine/threonine-protein kinase Nek7 (Homo sapiens);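 further: reported values are mean inhibition of NEK7 from the GSK PKIS kinase screening panel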
- PARTICULARS: at 1 µM
compounds and their reported inhibition
Dear colleague, please return just the value in %, with no unit written.

Take a look at these entries with their results.
INSERT INTO assay_data (molecular_string, unit_symbol, reported_value) VALUES
  ('COc1ccc2c(-c3ccnc(Nc4cccc(OC(F)(F)F)c4)n3)cnn2n1', '%', 4.57),
  ('NS(=O)(=O)c1ccc(Nc2ncc(-c3ccccc3)o2)cc1', '%', 2.65);

# input Using the record for `COc1ccc(CNC(=O)c2ccc(-c3cc(-c4nnc(C)o4)ccc3C)cc2)cc1` , report its inhibition.
# output -1.14

---

Items are presented alongside their recorded inhibition.
- ASSAY_SYSTEM: Protein kinase C eta type (Homo sapiens) (UniProt P24723);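 further: values are the mean percent inhibition of PKC-eta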
- Sequence (P24723 whole entry): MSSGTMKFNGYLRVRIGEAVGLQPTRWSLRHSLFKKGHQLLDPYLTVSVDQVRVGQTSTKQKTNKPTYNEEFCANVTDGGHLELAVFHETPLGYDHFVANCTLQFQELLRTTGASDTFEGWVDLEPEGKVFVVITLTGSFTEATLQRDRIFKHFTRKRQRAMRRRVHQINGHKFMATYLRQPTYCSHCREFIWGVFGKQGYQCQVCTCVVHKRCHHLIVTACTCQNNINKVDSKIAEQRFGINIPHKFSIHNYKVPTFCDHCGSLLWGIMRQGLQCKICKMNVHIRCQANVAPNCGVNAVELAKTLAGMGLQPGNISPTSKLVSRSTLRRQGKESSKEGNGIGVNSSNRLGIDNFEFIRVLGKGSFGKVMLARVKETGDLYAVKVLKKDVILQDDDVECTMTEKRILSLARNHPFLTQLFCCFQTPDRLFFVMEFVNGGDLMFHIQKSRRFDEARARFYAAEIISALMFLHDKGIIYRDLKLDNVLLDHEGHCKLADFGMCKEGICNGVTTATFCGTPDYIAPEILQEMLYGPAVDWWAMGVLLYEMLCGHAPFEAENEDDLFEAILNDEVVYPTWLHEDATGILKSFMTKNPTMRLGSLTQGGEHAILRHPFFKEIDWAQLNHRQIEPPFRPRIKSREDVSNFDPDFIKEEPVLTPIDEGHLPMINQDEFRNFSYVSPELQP
- PARTICULARS: at 0.1 µM
Quick reminder: number only, in %, skip the unit.

Some entries whose results are on file:
INSERT INTO measurements (molecular_string, unit_symbol, reported_value) VALUES
  ('CNC(=O)c1cc(-c2ccc(F)cc2)cc(-c2ccc(S(=O)(=O)N3CCCC3)cc2)c1N', '%', 3.68),
  ('N#Cc1c(NC(=O)CN2CCOCC2)sc2c1CCCC2', '%', 5.18),
  ('CCOc1ccc2c(-c3ccnc(Nc4cccc(C(F)(F)F)c4)n3)cnn2n1', '%', 0.98),
  ('CNC(=O)c1cncc(/C=C/c2ccccc2Cl)c1', '%', 1.33);

Turning now to a further compound:
# input May I ask what inhibition has been recorded for `COc1ccc2[nH]c3c4[nH]c5ccc(OC)cc5c4c4c(c3c2c1)C(=O)NC4=O` ?
# output 3.82
